- Measurement Target: Nucleoprotein (Lymphocytic choriomeningitis virus (strain Armstrong)) (UniProt P09992)
- Sequence (P09992 whole entry, looked up): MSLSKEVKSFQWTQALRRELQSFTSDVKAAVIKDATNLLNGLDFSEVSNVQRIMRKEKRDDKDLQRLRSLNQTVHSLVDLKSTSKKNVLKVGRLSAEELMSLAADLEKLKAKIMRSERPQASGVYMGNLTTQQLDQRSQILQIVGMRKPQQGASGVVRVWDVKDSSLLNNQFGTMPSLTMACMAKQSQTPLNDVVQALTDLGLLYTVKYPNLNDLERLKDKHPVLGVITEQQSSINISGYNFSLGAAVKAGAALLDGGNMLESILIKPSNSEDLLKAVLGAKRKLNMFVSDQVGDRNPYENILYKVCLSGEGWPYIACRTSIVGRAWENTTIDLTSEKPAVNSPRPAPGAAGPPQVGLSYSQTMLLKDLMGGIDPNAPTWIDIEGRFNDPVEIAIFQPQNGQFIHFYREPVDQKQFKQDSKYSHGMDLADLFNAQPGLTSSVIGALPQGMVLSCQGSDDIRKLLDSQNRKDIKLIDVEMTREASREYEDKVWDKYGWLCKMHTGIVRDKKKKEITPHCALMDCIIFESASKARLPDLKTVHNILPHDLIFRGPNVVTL
- Test Protocol: qHTS for Inhibitors of the Functional Ribonucleoprotein Complex (vRNP) of Lymphocytic Choriomeningitis Arenaviruses (LCMV): LCMV Primary Screen - GLuc reporter signal (AID 1347086); further: nearly all actives have a fitted effect of over 70% in size; further: potency means the concentration at half of the fitted maximal effect
- Test Settings: LCMV minigenome vRNP cell assay, Gaussia luciferase reporter; series mostly up to 57.5 µM
Records with an inconclusive call do not appear. Active and inactive are the calls of the source. The call rests on the fitted dose curve. Numbered stars: 1 amine (or outer) side, 2 acyl side, 3 side chain; on linkers, the order of the positions; unused ones are H or OH. Bridge positions count the residues as written; N and C are the ends. Square brackets hold non-standard residues; d marks the D form. Peptide text beside a SMILES is read from it. I, II: the chains in the order shown. Actinocin(9to1) = Cc1c2oc3c(C)ccc(C(=O)[*:1])c3nc-2c(C(=O)[*:2])c(N)c1=O; NMeV = CN[CH](C(=O)O)C(C)C; Sar = CNCC(=O)O
Endpoint Label: Potency

CC[C@@H](C)[C@@H](O)[C@H](C)C(=O)[C@H](C)/C=C(\C)C[C@H](C)[C@@H]1OC(=O)[C@H]1CC :: inactive
O=C(O)C1=CCNCC1 :: inactive
c1coc(Cn2cccc2)c1 :: inactive
CC1=C2C(=O)C3C(CC=C4CC(O)CCC43C)C2CCC12OC1CC(C)CNC1C2C (centres undefined) :: inactive
NCc1c[nH]c(=S)n1[C@H]1CCc2c(F)cc(F)cc2C1 :: inactive
COc1cc(N2CCC(C(N)=O)CC2)ccc1Nc1nc(N)c(Cl)c(Nc2ccccc2S(=O)(=O)C(C)C)n1 :: 769 nM (active)
CC(C)C1=CC2=CC[C@@H]3[C@](C)(CCC[C@@]3(C)C(=O)O)[C@H]2CC1 :: inactive
C[N+](C)(C)CC=O :: inactive
CCCCCCCCCCCC(=O)c1c(O)cccc1O :: inactive
COc1ccc(C2(C#N)CCC(C(=O)O)CC2)cc1OC1CCCC1 (centres undefined) :: inactive
CC(C)C1C(=O)O[C@@H]2CCN3CC=C(COC(=O)[C@](C)(O)[C@]1(C)O)[C@H]23 (some centres undefined) :: inactive
CCc1c(C(=O)NCCc2ccc(N3CCCCC3)cc2)[nH]c2ccc(Cl)cc12 :: inactive
CCCCCCCCCCCCCCCCCCCCCCCCCCCCCC :: inactive
CCn1nnc2c(N3CCOCC3)nc(-c3ccc(NC(=O)Nc4ccc(C(=O)N5CCN(C)CC5)cc4)cc3)nc21 :: 38.5 nM (active)
COc1ccc(-c2cc(=O)c3c(O)cc(O)cc3o2)cc1O :: 24300 nM (active)
C/C=C(/C)C(=O)O[C@H]1CC(C)=CC(=O)[C@@]2(C)CC[C@@](O)(C(C)C)[C@H]12 :: inactive
c1ccc2nc(-c3ccc4c(c3)OCO4)ccc2c1 :: inactive
CSCC[C@@H](N)C(=O)O :: inactive
Cc1c2oc3c(C)ccc(C(=O)NC4C(=O)NC(C(C)C)C(=O)N5CCCC5C(=O)N(C)CC(=O)N(C)C(C(C)C)C(=O)OC4C)c3nc-2c(C(=O)NC2C(=O)NC(C(C)C)C(=O)N3CCCC3C(=O)N(C)CC(=O)N(C)C(C(C)C)C(=O)OC2C)c(N)c1=O (centres undefined) (I: TVP[Sar][NMeV] / II: TVP[Sar][NMeV]; ester I:1-I:C, II:1-II:C; linker I:N-II:N via Actinocin(9to1); configuration not given here) :: inactive
